Source of measurements: BindingDB's records for patent US12391671

- targetOfAssay: Epidermal growth factor receptor [T790M,L858R] (Homo sapiens, UniProt P00533, L858R/T790M)
- Sequence (P00533 25-1210 T790M/L858R limits assumed): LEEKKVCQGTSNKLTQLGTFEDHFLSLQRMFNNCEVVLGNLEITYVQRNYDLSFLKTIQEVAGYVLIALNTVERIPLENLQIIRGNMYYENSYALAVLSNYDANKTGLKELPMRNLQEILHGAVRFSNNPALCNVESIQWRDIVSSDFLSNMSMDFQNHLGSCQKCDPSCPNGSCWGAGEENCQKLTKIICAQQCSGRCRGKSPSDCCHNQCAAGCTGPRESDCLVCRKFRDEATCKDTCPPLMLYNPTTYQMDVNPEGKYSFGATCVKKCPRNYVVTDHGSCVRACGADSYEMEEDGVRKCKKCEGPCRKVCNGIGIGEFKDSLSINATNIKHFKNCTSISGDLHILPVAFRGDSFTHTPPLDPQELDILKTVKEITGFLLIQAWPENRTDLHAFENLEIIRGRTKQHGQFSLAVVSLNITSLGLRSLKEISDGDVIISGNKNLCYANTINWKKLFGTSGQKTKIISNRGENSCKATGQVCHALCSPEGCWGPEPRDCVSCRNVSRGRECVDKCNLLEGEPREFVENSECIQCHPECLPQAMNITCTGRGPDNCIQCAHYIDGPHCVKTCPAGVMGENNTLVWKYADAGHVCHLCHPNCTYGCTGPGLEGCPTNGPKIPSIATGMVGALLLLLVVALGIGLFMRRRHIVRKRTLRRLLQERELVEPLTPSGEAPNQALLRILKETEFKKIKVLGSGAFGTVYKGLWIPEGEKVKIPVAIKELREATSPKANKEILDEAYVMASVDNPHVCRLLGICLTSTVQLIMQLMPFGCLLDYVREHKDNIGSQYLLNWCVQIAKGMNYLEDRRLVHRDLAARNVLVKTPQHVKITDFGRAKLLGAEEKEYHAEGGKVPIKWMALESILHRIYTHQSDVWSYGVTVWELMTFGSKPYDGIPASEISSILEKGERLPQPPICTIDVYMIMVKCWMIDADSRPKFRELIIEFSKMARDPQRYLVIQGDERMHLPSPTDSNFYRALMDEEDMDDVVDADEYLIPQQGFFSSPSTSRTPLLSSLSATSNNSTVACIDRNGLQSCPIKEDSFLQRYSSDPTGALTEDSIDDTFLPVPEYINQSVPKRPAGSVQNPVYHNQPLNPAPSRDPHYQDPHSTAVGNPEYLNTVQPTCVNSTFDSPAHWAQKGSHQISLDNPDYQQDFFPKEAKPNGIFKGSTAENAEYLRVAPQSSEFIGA
- protocolNotes: HTRF-Based EGFR Biochemical Assay
- Experimental: EGFR biochemical activity measurements were carried out using the homogeneous time-resolved fluorescence (HTRF) assay (Cisbio), inhibitors and DMSO normalizations were first dispensed to empty black low-volume 384-well plates (Corning) with 0300 digital liquid dispenser (HP). All reactions were carried out at room temperature and solutions were added to plates with a Multidrop Combi Reagent Dispenser (ThermoFisher). […]
pIC50: −log10 of the molar value.
parameterMeasured: pIC50

(A) O=C1c2cc(-c3ccc(N4CCNCC4)cc3)ccc2CN1C(c1nc2ccccc2[nH]1)c1cc(F)ccc1O (stereo not drawn)
(B) CN1CCC(c2ccc(-c3ccc4c(c3F)C(=O)N(C(c3nc5ccccc5[nH]3)c3cc(F)ccc3O)C4)cc2)CC1 (stereo not drawn)
(C) CN1CCC(c2ccc(-c3ccc4c(c3)C(=O)N(C(c3nc5ccccc5[nH]3)c3cccc(Cl)c3O)C4)cc2)CC1 (stereo not drawn)
Incoming: Give the order of the entries above, sorted from least to greatest pIC50. In plain terms: list the labels in the order you were asked to.
Outgoing: C, A, B
(C: 7.14, A: 8.70, B: 9.52)

###

- targetOfAssay: Epidermal growth factor receptor [T790M,L858R] (Homo sapiens, UniProt P00533, T790M/L858R)
- Sequence (P00533 25-1210 T790M/L858R limits assumed): as above
- protocolNotes: HTRF-Based EGFR Biochemical Assay
parameterMeasured: pIC50
As a rule, pIC50 stands for the negative log10 of the concentration, concentration in M.

The compound CC1=CNC([C@H](c2cc(F)ccc2O)N2CC3=CC=C(c4ccc(C5CCN(C)CC5)cc4)C(F)C3C2=O)N1 (stereo partly specified) , tested on Epidermal growth factor receptor [T790M,L858R] (Homo sapiens, UniProt P00533, T790M/L858R), showed pIC50 of 8.70

###

- targetOfAssay: Epidermal growth factor receptor [L858R] (Homo sapiens, UniProt P00533, L858R)
- Sequence (P00533 25-1210 L858R limits assumed): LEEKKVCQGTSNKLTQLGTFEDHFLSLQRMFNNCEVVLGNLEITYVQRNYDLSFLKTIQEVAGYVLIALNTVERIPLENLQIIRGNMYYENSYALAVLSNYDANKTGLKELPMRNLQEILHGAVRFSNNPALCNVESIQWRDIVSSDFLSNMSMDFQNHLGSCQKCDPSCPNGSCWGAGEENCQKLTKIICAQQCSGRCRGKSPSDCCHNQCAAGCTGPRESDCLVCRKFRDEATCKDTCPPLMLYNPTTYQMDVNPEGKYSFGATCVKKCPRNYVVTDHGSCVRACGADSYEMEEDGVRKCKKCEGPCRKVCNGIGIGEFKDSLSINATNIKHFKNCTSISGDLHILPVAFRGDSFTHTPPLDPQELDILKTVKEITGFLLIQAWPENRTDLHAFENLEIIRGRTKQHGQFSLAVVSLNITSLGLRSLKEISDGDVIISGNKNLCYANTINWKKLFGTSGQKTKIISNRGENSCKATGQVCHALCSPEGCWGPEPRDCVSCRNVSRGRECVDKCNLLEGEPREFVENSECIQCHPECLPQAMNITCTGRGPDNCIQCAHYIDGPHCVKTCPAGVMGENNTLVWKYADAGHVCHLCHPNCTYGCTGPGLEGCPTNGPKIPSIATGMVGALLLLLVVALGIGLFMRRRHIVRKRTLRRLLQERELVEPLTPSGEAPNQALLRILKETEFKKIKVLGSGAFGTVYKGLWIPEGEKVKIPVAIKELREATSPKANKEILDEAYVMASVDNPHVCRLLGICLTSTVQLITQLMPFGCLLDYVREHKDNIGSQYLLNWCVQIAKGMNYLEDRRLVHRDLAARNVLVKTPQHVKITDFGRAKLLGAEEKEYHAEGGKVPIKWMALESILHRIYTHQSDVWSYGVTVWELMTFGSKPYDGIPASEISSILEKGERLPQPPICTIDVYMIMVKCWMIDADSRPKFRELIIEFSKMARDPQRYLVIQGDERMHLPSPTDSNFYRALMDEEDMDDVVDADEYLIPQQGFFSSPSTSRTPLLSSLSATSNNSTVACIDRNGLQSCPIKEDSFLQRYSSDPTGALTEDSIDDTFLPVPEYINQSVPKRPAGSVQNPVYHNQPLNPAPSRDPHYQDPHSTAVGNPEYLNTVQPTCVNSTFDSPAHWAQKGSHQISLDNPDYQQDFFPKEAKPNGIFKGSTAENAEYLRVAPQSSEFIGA
- protocolNotes: HTRF-Based EGFR Biochemical Assay
pIC50: −log10 of the molar value.
parameterMeasured: pIC50

(1) O=C1c2cc(-c3ccc(N4CCNCC4)cc3)ccc2CN1C(c1nc2ccccc2[nH]1)c1cc(F)ccc1O (centres undefined)
(2) CN1CCC(c2ccc(-c3ccc4c(c3)C(=O)N(C(c3nc5ccccc5[nH]3)c3cccc(Cl)c3O)C4)cc2)CC1 (centres undefined)
(3) CC1=CNC([C@H](c2cc(F)ccc2O)N2CC3=CC=C(c4ccc(C5CCN(C)CC5)cc4)C(F)C3C2=O)N1 (some centres undefined)
(4) CN1CCC(c2ccc(-c3ccc4c(c3F)C(=O)N(C(c3nc5ccccc5[nH]3)c3cc(F)ccc3O)C4)cc2)CC1 (centres undefined)
Incoming: Give the order of the entries above, sorted from least to greatest pIC50. In plain terms: list the labels in the order you were asked to.
Outgoing: 2, 1, 4, 3
